assay: In vitro supersaturation under non-sink conditions (µDISS Profiler, tenfold supersaturation ratio, spray-dried solids); type: physicochemical; settings: freshly spray-dried (SD T0); tenfold supersaturation ratio, phosphate buffer pH 6.5, 37 °C, 60 min
Each item that follows carries a reported RCmax,app (Cmax,app ratio spray-dried/crystalline).
Give a plain numeric answer without units written out.

These solved cases illustrate the format of a correct answer.
[Q] What value of RCmax,app (Cmax,app ratio spray-dried/crystalline) has been reported for the following molecule? CC(=O)N1CCN(c2ccc(OCC3COC(Cn4ccnc4)(c4ccc(Cl)cc4Cl)O3)cc2)CC1 (centres unmarked)
[A] 2.0

[Q] Record request: RCmax,app (Cmax,app ratio spray-dried/crystalline) value, item Cc1ccccc1N1C(=O)c2cc(S(N)(=O)=O)c(Cl)cc2NC1C (centres unmarked)
[A] 2.8

[Q] Looking for the measured RCmax,app (Cmax,app ratio spray-dried/crystalline) of CC1Cc2ccccc2N1NC(=O)c1ccc(Cl)c(S(N)(=O)=O)c1 (centres unmarked) [Indapamide, indapamide] , can you help?
[A] 2.3

[Q] Dear colleague, I am looking for the recorded RCmax,app (Cmax,app ratio spray-dried/crystalline) of the following molecule: Nc1ccc(S(=O)(=O)Nc2nccs2)cc1
[A] 1.6

// next entry
[Q] Recorded RCmax,app (Cmax,app ratio spray-dried/crystalline) of COc1ccc(Cl)cc1C(=O)NCCc1ccc(S(=O)(=O)NC(=O)NC2CCCCC2)cc1 [Glibenclamide, glibenclamide] , please.
[A] 7.2

* * *

assay: Physical stability study of spray-dried amorphous APIs stored at 75% RH, 25 °C (solid state by Raman, MDSC, PXRD); format: physicochemical; settings: 75% RH at 25 °C; semi-quantitative Raman analysis
Measurement Type: Estimated Amorphous Content at Day 168

Some solved entries appear below for comparison.
[Q] What Estimated Amorphous Content at Day 168 value was documented for this compound, C[C@]12CCC(=O)C=C1CC[C@@H]1[C@@H]2[C@@H](O)C[C@@]2(C)[C@H]1CC[C@]2(O)C(=O)CO [Hydrocortisone, hydrocortisone] ?
[A] ~89%

[Q] // query Estimated Amorphous Content at Day 168 value for entry Cc1ccccc1N1C(=O)c2cc(S(N)(=O)=O)c(Cl)cc2NC1C (stereo not shown)
[A] 100%

[Q] Can you look up the measured Estimated Amorphous Content at Day 168 of Nc1ccc(S(=O)(=O)Nc2nccs2)cc1 for me?
[A] 0%

[Q] Given COc1ccc(Cl)cc1C(=O)NCCc1ccc(S(=O)(=O)NC(=O)NC2CCCCC2)cc1 [Glibenclamide, glibenclamide] , state its recorded Estimated Amorphous Content at Day 168.
[A] 94%

[Q] Can you share its Estimated Amorphous Content at Day 168? I mean this compound: NS(=O)(=O)c1cc2c(cc1Cl)NCNS2(=O)=O [Hydrochlorothiazide, hydrochlorothiazide]
[A] 0%

Further cases:
[Q] Reported Estimated Amorphous Content at Day 168 for CC1Cc2ccccc2N1NC(=O)c1ccc(Cl)c(S(N)(=O)=O)c1 (stereo not shown) [Indapamide, indapamide] : what is it?
[A] 100%

[Q] Name the recorded Estimated Amorphous Content at Day 168 for CC(=O)N1CCN(c2ccc(OCC3COC(Cn4ccnc4)(c4ccc(Cl)cc4Cl)O3)cc2)CC1 (stereo not shown) .
[A] 0%

* * *

Time to Complete Crystallization values for the compounds below.
Assay: Physical stability study of spray-dried amorphous APIs stored at 75% RH, 25 °C (solid state by Raman, MDSC, PXRD)
Assay type: physicochemical
Details: spray-dried amorphous API, 75% RH at 25 °C, up to 168 days
Procedure: The amorphous solids were prepared by spray-drying. In short, solutions containing the APIs of interest were prepared by dissolving the crystalline powder in either ethanol, acetone, or a mixture of 90:10 (% w/w) ethanol/acetone prior to spray-drying. […] These analyses monitored the physical stability of the amorphous API, and the supersaturation study investigated the impact of solid-state changes on the supersaturation potential and crystallization kinetics. […]
Output spec: scalar in days, unitless text.

Example results:
[Q] Query (compound): CC(=O)N1CCN(c2ccc(OCC3COC(Cn4ccnc4)(c4ccc(Cl)cc4Cl)O3)cc2)CC1 (stereo not drawn) ; field requested: Time to Complete Crystallization
[A] 7

[Q] I'd like to know its Time to Complete Crystallization. The compound in question is Nc1ccc(S(=O)(=O)Nc2nccs2)cc1
[A] 1

Turning now to a further compound:
[Q] For NS(=O)(=O)c1cc2c(cc1Cl)NCNS2(=O)=O [Hydrochlorothiazide, hydrochlorothiazide] , what is its reported Time to Complete Crystallization?
[A] 1
